Target: Cytochrome P450 11B1, mitochondrial (Rattus norvegicus)
Sequence (P15393 whole entry): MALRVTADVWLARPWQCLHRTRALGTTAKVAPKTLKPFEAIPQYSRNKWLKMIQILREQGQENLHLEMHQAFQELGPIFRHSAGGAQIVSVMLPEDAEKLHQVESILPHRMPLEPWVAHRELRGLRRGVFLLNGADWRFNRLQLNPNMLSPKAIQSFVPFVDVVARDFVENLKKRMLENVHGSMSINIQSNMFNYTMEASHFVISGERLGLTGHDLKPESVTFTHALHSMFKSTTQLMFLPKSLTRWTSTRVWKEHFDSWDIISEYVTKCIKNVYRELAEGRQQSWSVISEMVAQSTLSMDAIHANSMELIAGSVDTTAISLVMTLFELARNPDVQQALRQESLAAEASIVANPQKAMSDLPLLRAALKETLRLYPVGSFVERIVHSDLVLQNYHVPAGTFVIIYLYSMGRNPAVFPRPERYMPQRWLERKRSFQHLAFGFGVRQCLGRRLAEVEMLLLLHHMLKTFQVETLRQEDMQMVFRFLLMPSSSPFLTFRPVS
Test: Inhibition of CYP11B1 in Sprague-Dawley rat adrenal tissue using 11-deoxycorticosterone as substrate after 4 hrs by SPA
assayReadout: IC50
Answer with the number, then the unit.

Qu. Supply IC50 value. Item: CC(C)(C(=O)c1cccnc1)c1cccnc1
Ans. 5 µM

###

Biological target: Cytochrome P450 11B2, mitochondrial (Homo sapiens, UniProt P19099)
Sequence (P19099 whole entry): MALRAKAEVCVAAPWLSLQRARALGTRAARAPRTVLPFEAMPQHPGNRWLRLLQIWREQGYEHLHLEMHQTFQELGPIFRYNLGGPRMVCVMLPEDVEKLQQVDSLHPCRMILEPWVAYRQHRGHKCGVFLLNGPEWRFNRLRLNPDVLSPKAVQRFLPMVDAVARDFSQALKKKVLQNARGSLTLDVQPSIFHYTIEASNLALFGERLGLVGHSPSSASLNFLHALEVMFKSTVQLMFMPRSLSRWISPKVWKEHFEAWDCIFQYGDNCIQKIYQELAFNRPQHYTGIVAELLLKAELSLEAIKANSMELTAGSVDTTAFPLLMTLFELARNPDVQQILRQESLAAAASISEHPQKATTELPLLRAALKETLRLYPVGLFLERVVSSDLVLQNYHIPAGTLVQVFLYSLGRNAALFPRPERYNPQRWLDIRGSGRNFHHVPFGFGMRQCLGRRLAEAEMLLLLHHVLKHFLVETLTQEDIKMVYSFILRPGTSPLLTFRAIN
Assay: Inhibition of human CYP11B2 expressed in hamster V79MZ cells using [1,2-3H]-11-deoxycorticosterone as substrate after 6 hrs by HPLC analysis
IC50 vs 100 nM: less than gives TRUE; not less than gives FALSE.

Qu. Please let me know if Cc1cncc(Cc2cnc(-c3ccccc3)o2)c1 shows IC50 below 100 nM.
Ans. FALSE

Qu. Please let me know if Cn1nc(-c2ccccc2)cc1Cn1ccnc1 shows IC50 below 100 nM.
Ans. FALSE

Qu. Please let me know if Cc1cncc(Cc2ccc(-c3ccoc3)nc2)c1 shows IC50 below 100 nM.
Ans. TRUE

Qu. Please let me know if Cc1cncc(Cc2ccc(-c3ccccc3F)nc2)c1 shows IC50 below 100 nM.
Ans. TRUE

Qu. Please let me know if Cn1c(Cn2ccnc2)cnc1-c1ccccc1 shows IC50 below 100 nM.
Ans. FALSE

---
Qu. Please let me know if COc1cncc(Cc2cc(-c3ccccc3)no2)c1 shows IC50 below 100 nM.
Ans. TRUE

###

Experiment: AUC (0 to infinity) in Sprague-Dawley rat at 28 mg/kg, po administered as single dose by HPLC-MS/MS analysis
Assay type: ADME, organism-based
Design: dose 28 mg/kg, route oral, time infinity
Conditions: in vivo
assayReadout: AUC(0-inf) (ng·h/mL)
Give the value, in units of ng·h/mL, as a plain number.

Qu. Supply AUC(0-inf) value. Item: COc1cncc(Cc2cc(-c3ccccc3)no2)c1
Ans. 10200

###

Collected inhibition at 1 µM values appear next to each entry.
Biological target: CYP2B6 (Homo sapiens)
Sequence (P20813 whole entry): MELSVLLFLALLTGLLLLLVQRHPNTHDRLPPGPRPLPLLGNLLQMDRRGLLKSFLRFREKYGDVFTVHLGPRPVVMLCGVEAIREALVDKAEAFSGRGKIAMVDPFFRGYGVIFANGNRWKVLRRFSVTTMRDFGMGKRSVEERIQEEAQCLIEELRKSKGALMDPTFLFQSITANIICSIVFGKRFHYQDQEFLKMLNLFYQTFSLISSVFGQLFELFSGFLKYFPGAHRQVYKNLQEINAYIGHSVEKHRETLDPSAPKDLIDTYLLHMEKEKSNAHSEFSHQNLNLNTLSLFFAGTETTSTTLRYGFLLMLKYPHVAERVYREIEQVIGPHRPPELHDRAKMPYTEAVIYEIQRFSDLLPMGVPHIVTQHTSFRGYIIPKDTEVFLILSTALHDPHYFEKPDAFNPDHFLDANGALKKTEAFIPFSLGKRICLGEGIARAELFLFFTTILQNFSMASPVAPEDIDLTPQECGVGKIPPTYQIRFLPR
Test: Inhibition of recombinant human CYP2B6 expressed in baculovirus infected insect cell microsomes at 1 uM relative to control
Type: ADME
Give the value, in units of %, as a plain number.

Qu. Supply inhibition at 1 µM value. Item: COc1cncc(Cc2cc(-c3ccccc3)no2)c1
Ans. 19

Now for a further molecule.
Qu. Supply inhibition at 1 µM value. Item: Cc1cncc(Cc2cc(-c3ccccc3)no2)c1
Ans. 3
